system.tested: human mAChR M4 (Homo sapiens, UniProt P08173)
Construct: expressed in transfected cells; host or cells: CHO-K1 (American Type Culture Collection), stably expressing hM4 and Gqi5
Sequence (P08173 1-479): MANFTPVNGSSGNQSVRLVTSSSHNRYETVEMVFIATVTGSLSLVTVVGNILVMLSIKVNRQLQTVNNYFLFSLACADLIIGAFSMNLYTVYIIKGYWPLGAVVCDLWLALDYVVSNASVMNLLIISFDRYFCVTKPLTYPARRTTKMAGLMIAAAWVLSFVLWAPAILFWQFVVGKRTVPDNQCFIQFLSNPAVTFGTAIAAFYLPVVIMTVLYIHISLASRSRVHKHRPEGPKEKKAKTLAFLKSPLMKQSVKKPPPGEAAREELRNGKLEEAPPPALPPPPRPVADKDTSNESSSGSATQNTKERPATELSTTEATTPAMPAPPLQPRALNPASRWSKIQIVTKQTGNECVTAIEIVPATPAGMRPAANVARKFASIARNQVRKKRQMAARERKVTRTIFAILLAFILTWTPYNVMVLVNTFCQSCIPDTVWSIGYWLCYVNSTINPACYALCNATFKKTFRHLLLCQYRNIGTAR
test: mAChR M4 cell-based functional assay: calcium mobilization (Fluo-4, FDSS), potentiation of EC20 acetylcholine response in hM4-Gqi5 CHO-K1 cells
recorded.conditions: CHO-K1, % ACh maximum at 30 μM; human M4
Threshold 80%: Emax at 30 µM strictly smaller gives true, otherwise false.

>  <smiles>
Cc1cc(=O)n2nc(N3CCc4ncc(-c5cnn(C6COC6)c5)cc4C3)c(C)cc2n1

>  <assigned.category>
false

$$$$
>  <smiles>
Cc1cc2nccc(=O)n2nc1N1CCc2ncc(Nc3ccncc3F)cc2C1

>  <assigned.category>
false

$$$$
>  <smiles>
Cc1c(N2CCc3ncc(-c4cncc(C#N)c4)cc3C2)nn2c(=O)cc(C(F)F)nc2c1C

>  <assigned.category>
false

$$$$
>  <smiles>
Cc1cnccc1-c1cnc2c(c1)CN(c1nn3c(=O)cc(C(F)F)nc3c(C)c1C)CC2

>  <assigned.category>
false

$$$$
>  <smiles>
Cc1c(N2CCc3ncc(-c4ccc(N(C)C)nc4)cc3C2)nn2c(=O)cc(C(F)F)nc2c1C

>  <assigned.category>
true

$$$$
>  <smiles>
Cc1ccc(-c2cnc3c(c2)CN(c2nn4c(=O)cc(C(F)F)nc4c(C)c2C)CC3)cc1F

>  <assigned.category>
false

$$$$

###

system.tested: human mAChR M4 (Homo sapiens)
Sequence (P08173 1-479): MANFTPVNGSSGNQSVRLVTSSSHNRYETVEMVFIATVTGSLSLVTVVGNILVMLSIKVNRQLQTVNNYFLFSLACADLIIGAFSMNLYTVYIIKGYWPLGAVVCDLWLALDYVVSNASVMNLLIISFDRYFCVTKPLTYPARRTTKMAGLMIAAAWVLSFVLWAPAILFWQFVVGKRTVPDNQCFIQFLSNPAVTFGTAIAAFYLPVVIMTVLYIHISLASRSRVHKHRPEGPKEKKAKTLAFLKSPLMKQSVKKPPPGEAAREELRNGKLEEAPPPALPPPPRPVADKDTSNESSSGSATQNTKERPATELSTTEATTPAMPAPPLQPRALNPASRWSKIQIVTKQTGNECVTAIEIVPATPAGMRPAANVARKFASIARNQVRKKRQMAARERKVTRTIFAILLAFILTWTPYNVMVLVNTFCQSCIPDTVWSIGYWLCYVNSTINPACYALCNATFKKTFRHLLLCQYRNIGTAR
test: mAChR M4 cell-based functional assay: calcium mobilization (Fluo-4, FDSS), potentiation of EC20 acetylcholine response in hM4-Gqi5 CHO-K1 cells
recorded.conditions: potentiation of EC20 acetylcholine response, calcium mobilization, human M4
Threshold 300 nM: EC50 strictly smaller gives true, otherwise false.

>  <compound>
Cc1cc(=O)n2nc(N3CCc4ncc(-c5ccc(N(C)C)nc5)cc4C3)c(C)cc2n1 [Compound 1-221]

>  <assigned.category>
true

$$$$
>  <compound>
COc1ccccc1Nc1cnc2c(c1)CN(c1nn3c(=O)ccnc3cc1C)CC2 [Compound 2-62]

>  <assigned.category>
true

$$$$
>  <compound>
Cc1cc(=O)n2nc(N3CCc4ncc(NCc5csc(C)n5)cc4C3)c(C)c(C)c2n1 [Compound 2-50]

>  <assigned.category>
false

$$$$
>  <compound>
Cc1c(N2CCc3ncc(-c4cncc(Cl)c4)cc3C2)nn2c(=O)cc(C(F)F)nc2c1C [Compound 1-160]

>  <assigned.category>
false

$$$$
>  <compound>
Cc1c(N2CCc3ncc(-c4cnn(C)c4)cc3C2)nn2c(=O)ccnc2c1C [Compound 1-62]

>  <assigned.category>
true

$$$$
>  <compound>
Cc1cc2nccc(=O)n2nc1N1CCc2ncc(Nc3ccc(F)nc3)cc2C1 [Compound 2-87]

>  <assigned.category>
true

$$$$
>  <compound>
Cc1cc(=O)n2nc(N3CCc4ncc(-c5ccccc5C5CC5)cc4C3)c(C)cc2n1 [Compound 1-231]

>  <assigned.category>
false

$$$$
>  <compound>
Cc1cc2nccc(=O)n2nc1N1CCc2ncc(-c3ccc(C4CC4)nc3)cc2C1 [Compound 1-67]

>  <assigned.category>
false

$$$$
>  <compound>
Cc1c(N2CCc3ncc(-c4ccc5nccn5c4)cc3C2)nn2c(=O)ccnc2c1C [Compound 1-225]

>  <assigned.category>
true

$$$$
>  <compound>
Cc1cc2nccc(=O)n2nc1N1CCc2ncc(-c3cn(C)nc3C)cc2C1 [Compound 1-2]

>  <assigned.category>
false

$$$$
>  <compound>
COCc1cc(=O)n2nc(N3CCc4ncc(-c5cc(F)ccc5F)cc4C3)c(C)cc2n1 [Compound 1-336]

>  <assigned.category>
false

$$$$
>  <compound>
Cc1cc(=O)n2nc(N3CCc4ncc(-c5ccccc5C(C)C)cc4C3)c(C)cc2n1 [Compound 1-230]

>  <assigned.category>
false

$$$$
>  <compound>
Cc1c(N2CCc3ncc(-c4ccc(N(C)C)nc4)cc3C2)nn2c(=O)ccnc2c1C [Compound 1-89]

>  <assigned.category>
true

$$$$
>  <compound>
[2H]C1([2H])Cc2ncc(Nc3ccncc3C)cc2C([2H])([2H])N1c1nn2c(=O)ccnc2cc1C [Compound 2-165]

>  <assigned.category>
true

$$$$

// data source = patent US20250101041A1
